- Target under test: Translocator protein (Homo sapiens)
- Sequence (P30536 whole entry): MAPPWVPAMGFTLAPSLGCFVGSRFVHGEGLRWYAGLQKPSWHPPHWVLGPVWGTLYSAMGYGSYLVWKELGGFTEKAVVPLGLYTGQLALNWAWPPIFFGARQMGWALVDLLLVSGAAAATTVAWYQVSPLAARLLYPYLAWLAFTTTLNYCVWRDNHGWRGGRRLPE
- Assay text: Inhibition of TSPO receptor (unknown origin)
pIC50: −log10 of the molar value.
Each item that follows carries a reported pIC50.

Chemical string | pIC50
COc1ccc(OC)c(CN(C(C)=O)c2cc(F)ccc2Oc2ccccc2)c1 | 9.55
CC(=O)N(C)c1ccccc1Oc1ccccc1 | 8.17
